Data provenance is paper PMC12137546.

Target: telomerase reverse transcriptase (TERT) (Homo sapiens, UniProt O14746)
Sequence (O14746 whole entry): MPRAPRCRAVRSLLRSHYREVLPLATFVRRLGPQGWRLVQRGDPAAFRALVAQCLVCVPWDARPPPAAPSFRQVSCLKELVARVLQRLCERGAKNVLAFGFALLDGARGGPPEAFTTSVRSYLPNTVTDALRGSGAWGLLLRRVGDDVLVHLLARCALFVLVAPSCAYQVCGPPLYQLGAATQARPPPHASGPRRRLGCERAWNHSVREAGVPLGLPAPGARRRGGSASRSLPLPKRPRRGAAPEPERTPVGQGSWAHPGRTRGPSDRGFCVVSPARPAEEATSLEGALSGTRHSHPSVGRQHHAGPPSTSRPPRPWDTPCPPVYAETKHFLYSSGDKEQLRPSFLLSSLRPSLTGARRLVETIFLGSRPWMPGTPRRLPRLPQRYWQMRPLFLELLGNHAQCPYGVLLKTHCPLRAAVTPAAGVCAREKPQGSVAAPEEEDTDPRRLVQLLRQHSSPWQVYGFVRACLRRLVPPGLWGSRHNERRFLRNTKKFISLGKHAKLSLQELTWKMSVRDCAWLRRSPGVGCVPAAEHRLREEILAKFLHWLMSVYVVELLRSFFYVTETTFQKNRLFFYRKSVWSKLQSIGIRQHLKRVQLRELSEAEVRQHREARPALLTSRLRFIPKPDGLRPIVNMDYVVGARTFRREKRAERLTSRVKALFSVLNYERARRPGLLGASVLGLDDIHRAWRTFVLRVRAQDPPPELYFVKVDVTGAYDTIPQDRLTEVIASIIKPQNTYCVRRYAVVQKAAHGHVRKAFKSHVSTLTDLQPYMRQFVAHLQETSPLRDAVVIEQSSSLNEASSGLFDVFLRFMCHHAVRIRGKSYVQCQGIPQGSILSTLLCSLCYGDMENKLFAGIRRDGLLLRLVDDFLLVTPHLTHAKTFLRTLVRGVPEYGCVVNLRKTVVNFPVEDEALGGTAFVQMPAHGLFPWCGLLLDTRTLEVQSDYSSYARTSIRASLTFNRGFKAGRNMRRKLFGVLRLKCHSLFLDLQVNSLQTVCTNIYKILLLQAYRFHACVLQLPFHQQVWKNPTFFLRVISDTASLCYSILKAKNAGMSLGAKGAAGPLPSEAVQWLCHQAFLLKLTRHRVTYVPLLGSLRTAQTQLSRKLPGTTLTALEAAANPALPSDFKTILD
Assay: microarray displacement of Cy5 primer cocktail from spotted TERT and lysates; TRAP inhibition in lysate at […]
pEC50: −log10 of the molar value.
Measurement kind: pEC50

Lookup: Notebook: pull reported pEC50 for telomerase reverse transcriptase (TERT) (Homo sapiens, UniProt O14746), entry C=C1[C@@H](C)C2[C@H](Cc3ccc(I)cc3)NC(=O)[C@@]23C(/C=C/C[C@H](C)C[C@@](C)(O)/C=C/[C@H]3OC(C)=O)[C@@H]1O (stereo partly shown) [compound 7, 4’-iodo cytochalasin H]
Found: 5.36 to 5.56

---

Target: telomerase reverse transcriptase (TERT) (Homo sapiens, UniProt O14746)
Assay: microscale thermophoresis; also microarray displacement of Cy5 primer cocktail (EC50 […]) and TRAP inhibition in cell lysate
Measurement kind: Kd

Lookup: Item under review: O=C(O[C@@H]1Cc2c(O)cc(O)cc2O[C@@H]1c1cc(O)c(O)c(O)c1)c1cc(O)c(O)c(O)c1 [EGCG, epigallocatechin-3-gallate] . Reported Kd?
Found: ~26 µM
